Parameter Ki: see the listing below.
# measured.on: neuronal nicotinic acetylcholine receptors
# assay.remarks: Displacement of [3H]-cytisine from nicotinic acetylcholine receptors, crude synaptic membrane preparations from whole rat brain
# test.context: [3H]-cytisine 1.25 nM, whole rat brain membranes, 60 minutes at 4° C.; IC50 converted to Ki by Cheng and Prusoff; read-out: Binding to Neuronal Nicotinic Acetylcholine Receptors (Binding)
Where a name gives a salt, the structure may show the parent alone.
Give the number; nM is assumed, so skip it.

{"molecule": "Cl.Cl.c1ccc2ncc(C34CCCN3CCC4)cc2c1 [Example 4, dihydrochloride]", "reported.metric": "Ki", "quantity.unit": "nM", "reported.measurement": 4.3}
{"molecule": "Cl.c1ncc(C23CCCN2CCC3)cn1 [Example 9, hydrochloride]", "reported.metric": "Ki", "quantity.unit": "nM", "reported.measurement": 3.7}
{"molecule": "Cl.Fc1ccc(C23CCCN2CCC3)c(F)n1 [Example 10, hydrochloride]", "reported.metric": "Ki", "quantity.unit": "nM", "reported.measurement": 2.9}
{"molecule": "Cc1cc(C23CCCN2CCC3)cnc1Cl.Cl [Example 19, hydrochloride salt]", "reported.metric": "Ki", "quantity.unit": "nM", "reported.measurement": 0.05}

Task: Param item = c1ccc(-c2cncc(C34CCCN3CCC4)c2)cc1 [Example 25, hydrochloride salt] ; retrieve measured Ki.
Output: 0.25

###

# measured.on: neuronal nicotinic acetylcholine receptors
# assay.remarks: Displacement of [3H]-cytisine from nicotinic acetylcholine receptors, crude synaptic membrane preparations from whole rat brain
# test.context: [3H]-cytisine 1.25 nM, whole rat brain membranes, 60 minutes at 4° C.; IC50 converted to Ki by Cheng and Prusoff; read-out: Binding to Neuronal Nicotinic Acetylcholine Receptors (Binding)
Where a name gives a salt, the structure may show the parent alone.
Parameter pKi: see the listing below.
The quantity pKi is defined as the negative base-10 logarithm of the molar concentration.

Take a look at these entries with their results.
{"molecule": "Cc1cncc(C23CCCN2CCC3)c1.Cl [Example 21, hydrochloride salt]", "measured.on": "neuronal nicotinic acetylcholine receptors", "reported.metric": "pKi", "reported.measurement": 9.48}
{"molecule": "Clc1ncccc1C12CCCN1CCC2 [Example 7, hydrochloride]", "measured.on": "neuronal nicotinic acetylcholine receptors", "reported.metric": "pKi", "reported.measurement": 6.36}
{"molecule": "Cl.Clc1ccc(C23CCCN2CCC3)cn1 [Example 5, hydrochloride]", "measured.on": "neuronal nicotinic acetylcholine receptors", "reported.metric": "pKi", "reported.measurement": 10.00}
{"molecule": "Cl.Oc1cncc(C23CCCN2CCC3)c1 [Example 16, hydrochloride salt]", "measured.on": "neuronal nicotinic acetylcholine receptors", "reported.metric": "pKi", "reported.measurement": 8.85}
{"molecule": "Brc1cncc(C23CCCN2CCC3)c1.Cl [Example 17, hydrochloride salt]", "measured.on": "neuronal nicotinic acetylcholine receptors", "reported.metric": "pKi", "reported.measurement": 9.21}
{"molecule": "Cc1ccc(C23CCCN2CCC3)cn1.Cl [Example 20, hydrochloride salt]", "measured.on": "neuronal nicotinic acetylcholine receptors", "reported.metric": "pKi", "reported.measurement": 9.25}

Task: Param item = Fc1ncccc1C12CCCN1CCC2 [Example 6, hydrochloride salt] ; retrieve measured pKi.
Output: 8.24

Task: Please do the same for c1ccc(COc2cncc(C34CCCN3CCC4)c2)cc1 [Example 16b] as well.
Output: 9.57

Task: Please do the same for Cl.Fc1ncc(C23CCCN2CCC3)cc1Br [Example 22, hydrochloride salt] as well.
Output: 9.66
